# Measured Target: BA.2 S protein (Severe acute respiratory syndrome coronavirus 2, UniProt P0DTC2, A27S/D405N/D614G/D796Y/DEL24-26/E484A/G142D/G339D/H655Y/K417N/N440K/N501Y/N679K/N764K/N969K/P681H/Q493R/Q498R/Q954H/R408S/S371F/S373P/S375F/S477N/T19I/T376A/T478K/V213G/Y505H)
Measurement Label: IC50

Lookup: Consider the molecule N[C@@H](CCC(=O)N[C@@H](CS)C(=O)NCC(=O)O)C(=O)O and give its measured IC50.
Found: < 10 mM
